Target: PI3Kβ (Homo sapiens, UniProt P42338)
Construct: purchased DiscoveRx Corporation, San Diego (contract service, KINOMEscan)
Sequence (P42338 whole entry): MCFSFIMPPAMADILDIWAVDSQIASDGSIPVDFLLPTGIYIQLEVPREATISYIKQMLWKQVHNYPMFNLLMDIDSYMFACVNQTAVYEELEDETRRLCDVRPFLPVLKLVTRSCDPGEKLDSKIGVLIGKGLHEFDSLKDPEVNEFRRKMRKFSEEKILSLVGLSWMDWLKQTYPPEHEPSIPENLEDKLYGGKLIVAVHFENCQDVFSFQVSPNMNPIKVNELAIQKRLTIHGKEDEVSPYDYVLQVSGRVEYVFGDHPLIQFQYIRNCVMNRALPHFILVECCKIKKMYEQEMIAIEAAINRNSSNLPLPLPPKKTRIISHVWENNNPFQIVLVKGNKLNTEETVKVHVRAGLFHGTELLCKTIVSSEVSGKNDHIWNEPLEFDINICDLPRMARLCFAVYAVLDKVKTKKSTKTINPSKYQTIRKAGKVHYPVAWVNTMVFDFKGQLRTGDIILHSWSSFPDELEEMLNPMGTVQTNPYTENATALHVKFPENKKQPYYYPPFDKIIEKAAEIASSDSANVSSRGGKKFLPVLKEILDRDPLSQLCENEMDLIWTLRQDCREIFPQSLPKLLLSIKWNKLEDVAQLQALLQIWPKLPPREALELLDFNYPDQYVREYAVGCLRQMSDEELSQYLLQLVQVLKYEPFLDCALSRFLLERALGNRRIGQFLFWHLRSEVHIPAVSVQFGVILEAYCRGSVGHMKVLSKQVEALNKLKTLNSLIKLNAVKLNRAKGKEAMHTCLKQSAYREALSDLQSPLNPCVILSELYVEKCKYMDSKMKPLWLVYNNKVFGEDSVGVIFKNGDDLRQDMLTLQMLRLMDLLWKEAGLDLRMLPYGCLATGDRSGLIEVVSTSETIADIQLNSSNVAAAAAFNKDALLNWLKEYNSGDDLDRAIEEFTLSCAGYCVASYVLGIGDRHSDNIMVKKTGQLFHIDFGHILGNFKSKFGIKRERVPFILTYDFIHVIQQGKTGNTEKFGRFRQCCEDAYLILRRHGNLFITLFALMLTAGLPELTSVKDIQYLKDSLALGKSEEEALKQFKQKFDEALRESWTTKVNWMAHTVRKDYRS
Test: Enzyme binding assay (KINOMEscan, DiscoveRx)
Details: PIK3Cβ_h, read-out: Kd PIK3Cβ_h
Protocol: Enzyme Binding Assays (KINOMEscan®) Kinase enzyme binding affinities of compounds disclosed herein were determined using the KINOMEscan technology performed by DiscoveRx Corporation, San Diego, Calif., USA (www.kinomescan.com). Table A reports the obtained Kd values (nM), with the Kd being the inhibitor binding constant: […]
EXPERIMENTAL ENDPOINT: pKd
The scale used: pKd is minus the common logarithm of the concentration in molar units.

{"columns": ["MOLECULE", "MEASURED NUMBER"],
 "data": [
  ["CC(Nc1cc(F)cc(F)c1)c1cc(C(=O)NCCN(C)C)cc2ncc(N3CCOCC3)nc12 (centres unmarked)", 10.00],
  ["CC(Nc1ccc(F)c(F)c1)c1cc(C(=O)N(C)CCN(C)C)cc2ncc(N3CCOCC3)nc12 (single isomer, unassigned) [Compound 349b]", 7.85],
  ["CC(Nc1cc(F)cc(F)c1)c1cc(C(=O)NC[C@H](C)O)cc2ncc(N3CCOCC3)nc12 (single isomer, unassigned) [Compound 246b]", 4.78],
  ["CC(Oc1cccc(F)c1)c1cc(CO)cc2ncc(N3CCOCC3)nc12 (single isomer, unassigned) [Compound 89]", 6.08]
]}

# context switch: different molecule, same pKd
Requested read-out: pKd. Entry: CC(Oc1cc(F)cc(F)c1)c1cc(C(=O)N(C)CCO)cc2ncc(N3CCOCC3)nc12 (racemic) [Compound 59]
8.52

====

target: kinase enzymes (Homo sapiens)
pKd: −log10 of the molar value.
Label Satisfied when pKd >= 6; otherwise Not satisfied.

Known results for compounds:
{"columns": ["COMPOUND", "CLASS"],
 "data": [
  ["CC(O)c1cc(C2CCCN2c2cc(F)cc(F)c2)c2nc(N3CCOCC3)cnc2c1 (stereo not drawn)", "Satisfied"],
  ["CC(Nc1cc(F)cc(F)c1)c1cc(CN2CC3(C2)CS(=O)(=O)C3)cc2ncc(N3CCOCC3)nc12 (single isomer, unassigned)", "Not satisfied"]
]}

Textbook exercise: given the entry NC1CCN(C(=O)c2cc(C3CCCN3c3cc(F)cc(F)c3)c3nc(N4CCOCC4)cnc3c2)CC1 (stereo not drawn) , state whether its pKd is greater than or equal to 6.
Satisfied

Moving on to CON(C)C(=O)c1cc(C2CCCN2c2cc(F)cc(F)c2)c2nc(N3CCOCC3)cnc2c1 (stereo not drawn)
Satisfied

Try the compound CN(C)C(=O)c1cc(N2CCCC2c2cc(F)cc(F)c2)c2nc(N3CCOCC3)cnc2c1 (single isomer, unassigned) [Compound 395a]
Not satisfied

====

Tested on: Akt phosphorylated at Ser473 in PC-3 cells
Assay: Cellular assay: phosphorylation of Akt at Ser473 in PC-3 cells (MSD ELISA)
Type: cell-based
Conditions: PC-3 cells, 60 min compound incubation, MSD ELISA; read-out: IC50 pAkt_S473
Experimental: Cellular activity of PI3KP inhibitors was determined by quantifying the phosphorylation of Akt in PC-3 cells. Akt phosphorylated at Ser473 and Thr308 were measured using an enzyme-linked immunosorbent assay (ELISA; Meso Scale Discovery (MSD), Gaithersburg. Md.) and specific primary antibodies from MSD. On day 2, compound or DMSO (0.3%) was added and cells were further incubated for 60 min at 37° C. […] Data were processed. […] From these concentration-response curves, the IC50 values were calculated. […]
pIC50: −log10 of the molar value.
Rule: pIC50 of 8 or more gives MET; anything lower gives NOT MET.

{"columns": ["MOLECULE", "CLASS"],
 "data": [
  ["O=C(NCCO)c1cc(N2CCCC2c2cc(F)cc(F)c2)c2nc(N3CCOCC3)cnc2c1 (single isomer, unassigned) [Compound 245]", "NOT MET"],
  ["CC(Nc1cc(F)cc(F)c1)c1cc(C(=O)N2CCOCC2)cc2ncc(N3CCOCC3)nc12 (single isomer, unassigned) [Compound 9]", "NOT MET"]
]}

Check this molecule for pIC50 at or above 8: CNCCN(C)C(=O)c1cc(C(C)Nc2cc(F)cc(F)c2)c2nc(N3CCOCC3)cnc2c1 (single isomer, unassigned) [Compound 137]
MET

How about Fc1cc(F)cc(N2CCCC2c2cncc3ncc(N4CCOCC4)nc23)c1 (single isomer, unassigned) [Compound 24] ?
NOT MET

Cool, now CC(Nc1ccc(F)c(F)c1)c1cc(C(=O)N2CCN3CCC[C@H]3C2)cc2ncc(N3CCOCC3)nc12 (single isomer, unassigned) [Compound 287a]
NOT MET

Further, for CNCCOCCN(C)C(=O)c1cc(C(C)Nc2ccc(F)c(F)c2)c2nc(N3CCOCC3)cnc2c1 (single isomer, unassigned) [Compound 345b] ?
NOT MET

What do we get for CC(O)c1cc(C2CCCN2c2cc(F)cc(F)c2)c2nc(N3CCOCC3)cnc2c1 (single isomer, unassigned) [Compound 15] ?
MET

Same read-out for CCN1CCN(C(=O)c2cc(C(C)Nc3cccc(F)c3)c3nc(N4CCOCC4)cnc3c2)CC1 (single isomer, unassigned) [Compound 114] ?
NOT MET

Next record, please: CC(Oc1cc(F)cc(F)c1)c1cc(C(=O)N(C)C)cc2ncc(N3CCOCC3)nc12 (single isomer, unassigned) [Compound 5]
NOT MET

Try this molecule too: COC(=O)c1cc(C2CCCN2c2cc(F)cc(F)c2)c2nc(N3CCOCC3)cnc2c1 (single isomer, unassigned) [Compound 249]
NOT MET

And then CN[C@H]1CCN(C(=O)c2cc(C(C)Oc3cc(F)c(F)c(F)c3)c3nc(N4CCOCC4)cnc3c2)C1 (single isomer, unassigned) [Compound 405b] , what is it?
NOT MET

====

EXPERIMENTAL ENDPOINT: melting point (°C)
Use °C as the unit, but write only the number.

Use these answered entries as a reference point.
{"columns": ["COMPOUND", "melting point, °C"],
 "data": [
  ["CC(Nc1cccc(F)c1)c1cc(C(=O)N2CCC[C@H]2CO)cc2ncc(N3CCOCC3)nc12 (single isomer, unassigned) [Compound 116]", 332],
  ["CC(Nc1ccc(F)c(F)c1)c1cc(C(=O)N(C)CCN(C)C)cc2ncc(N3CCOCC3)nc12 (single isomer, unassigned) [Compound 349a]", 82]
]}

Please look at the following compound next.
Tell me the measured melting point of CC(Nc1cc(F)cc(F)c1)c1cc(C(=O)NS(N)(=O)=O)cc2ncc(N3CCOCC3)nc12 (single isomer, unassigned) [Compound 243a] , please.
160

====

This section lists log10 Kd readings for kinase enzymes (Homo sapiens).
Hello, just confirming the data are log10 of Kd with units of µM.

GET /values?readout=log10 Kd&system=kinase enzymes (Homo sapiens)&item= `CN(C)C(=O)c1cc(NCc2cc(F)cc(F)c2)c2nc(N3CCOCC3)cnc2c1`
0.32

Could you do the same for COC(=O)c1cc(C(C)Nc2cc(F)cc(Cl)c2)c2nc(N3CCOCC3)cnc2c1 (centres unmarked) , please?
0.99

Would you kindly repeat that for CC(Nc1ccc(F)c(F)c1)c1cc(C(=O)NC[C@@H](C)O)cc2ncc(N3CCOCC3)nc12 (single isomer, unassigned) [Compound 346b] ?
1.37

Do the same for CC(Nc1cc(C(=O)N(C)C)cc2ncc(N3CCOCC3)nc12)c1cc(F)cc(F)c1 (centres unmarked) please
0.65

// repeat for `C[C@H](Nc1cccc(F)c1)c1cc(C(=O)NCCO)cc2ncc(N3CCOCC3)nc12` and report
1.15

What do you get for COCCN(C)Cc1cc(C2CCCN2c2cc(F)cc(F)c2)c2nc(N3CCOCC3)cnc2c1 (centres unmarked) ?
-0.02

Check C[C@@H]1CN(c2cnc3cc(C(=O)N(C)C)cc(C4CCCN4c4cc(F)cc(F)c4)c3n2)CCO1 (some centres unmarked) [Compound 4] too.
1.37

How about CC(Nc1cc(F)cc(F)c1)c1cc(C(=O)N2CCNC(C(F)(F)F)C2)cc2ncc(N3CCOCC3)nc12 (centres unmarked) [Compound 237] ?
-0.54

====

biological target: kinase enzymes (Homo sapiens); construct: purchased DiscoveRx Corporation, San Diego (contract service, KINOMEscan); assay: Enzyme binding assay (KINOMEscan, DiscoveRx), further kinases of Table A; conditions: MTOR_h
Overview of reported pKd across a group of compounds:
A value of pKd is the negative decimal logarithm of a concentration given in moles per litre.

Use these answered entries as a reference point.
{"columns": ["COMPOUND", "pKd"],
 "data": [
  ["CNCCNC(=O)c1cc(C(C)Oc2cc(F)cc(F)c2)c2nc(N3CCOCC3)cnc2c1 (single isomer, unassigned)", 4.66],
  ["CC(Nc1cc(F)cc(F)c1)c1cc(CO)cc2ncc(N3CCOCC3)nc12 (centres unmarked) [Compound 84]", 5.07],
  ["C[C@H](Nc1cc(C(=O)N(C)C)cc2ncc(N3CCOCC3)nc12)c1ccc(F)cc1", 4.94],
  ["CC(Nc1cc(F)cc(F)c1)c1cc(C(=O)NS(N)(=O)=O)cc2ncc(N3CCOCC3)nc12 (single isomer, unassigned) [Compound 243a]", 5.83],
  ["CC(Nc1cc(F)c(F)c(F)c1)c1cc(C(=O)NCCN(C)C)cc2ncc(N3CCOCC3)nc12 (single isomer, unassigned) [Compound 309a]", 4.70],
  ["CC(Nc1ccc(F)c(F)c1)c1cc(C(=O)NCCCO)cc2ncc(N3CCOCC3)nc12 (single isomer, unassigned) [Compound 280a]", 4.68],
  ["CNCCNC(=O)c1cc(C(C)Nc2cccc(F)c2)c2nc(N3CCOCC3)cnc2c1 (centres unmarked) [Compound 282]", 4.63],
  ["CC(Nc1ccc(F)c(F)c1)c1cc(C(=O)NCCN(C)C)cc2ncc(N3CCOCC3)nc12 (single isomer, unassigned) [Compound 281a]", 4.63],
  ["C[C@@H](Nc1cc(F)cc(F)c1)c1cc(C(=O)NCCN(C)C)cc2ncc(N3CCOCC3)nc12 [Compound 184]", 4.72],
  ["C[C@@H]1CN(c2cnc3cc(C(=O)N(C)C)cc(C4CCCN4c4cc(F)cc(F)c4)c3n2)CCO1 (some centres unmarked) [Compound 3]", 4.75]
]}

Reported pKd, compound CC(Nc1cccc(F)c1)c1cc(CO)cc2ncc(N3CCOCC3)nc12 (centres unmarked) : ____
4.85

src = patent US10526316B2
